Hello, the source for this data is the kinase profiling compilation of Christmann-Franck et al. (2016), in case you need it.

molecular target: MAPK8 (human); assay: radiometric filter-binding kinase assay; conditions: compound 100.0 µM
Hi there, I'd appreciate the recorded residual activity for every entry that follows.
Give bare numbers, in %.

Study these solved cases before continuing.
Recall the recorded residual activity for `COC(=O)/C=C/C(=O)OC` with MAPK8 (human) and state it.
92

Recall the recorded residual activity for `Cc1cc(N=Nc2cc(S(=O)(=O)O)c(C)cc2C)c(N)cc1O` with MAPK8 (human) and state it.
113

Recall the recorded residual activity for `N#Cc1c(O)c2c(-c3ccc(-c4ccccc4O)cc3)csc2[nH]c1=O` with MAPK8 (human) and state it.
93

# evaluate next
Recall the recorded residual activity for `Cc1ccc2c(c1)C(=O)[C@@]1(O)CCN(c3ccccc3)C1=N2` with MAPK8 (human) and state it.
78

====

molecular target: FGFR1 (human); experiment: radiometric filter-binding kinase assay; settings: compound 0.1 µM
experimental.readout: residual activity (%)
Numbers only, in %.

Study these solved cases before continuing.
Which residual activity is listed for `CNc1nc(-c2ccc3c(N)n[nH]c3c2)cc(N2C[C@@H](C(=O)NC3CCCCC3)CC[C@H]2C)n1` ?
119

Which residual activity is listed for `Cn1c(=O)c2c(ncn2C)n(C)c1=O` ?
118

Hi, could you look up residual activity for each item in my list?
1. NC(=O)Nc1ccc2c(c1)/C(=C/c1cc(-c3cccnc3)c[nH]1)C(=O)N2
2. COc1cc(O)c2c(c1)[C@H]1OC1C[C@H](O)[C@H](O)C(=O)/C=C\C[C@H](C)OC2=O (stereo not given in full)
3. O=C(O)c1ccc(-c2c[nH]c3ncc(-c4ccccc4)cc23)cc1C1CCCC1
4. O=C(Nc1nc2cc(C(F)(F)F)cc(NC3CC3)n2n1)c1cccnc1
5. C/C(=C1/C(=O)Nc2ccc(NC(N)=O)cc21)c1ccc[nH]1

1. 17
2. 154
3. 99
4. 105
5. 18

Hi, could you look up residual activity for each item in my list?
1. NC(=O)c1cc2c(-c3cccc(-c4ccccc4)c3)cnc(N)c2s1
2. NC1(c2ccc(-c3nc4ccn5c(=O)[nH]nc5c4cc3-c3ccccc3)cc2)CCC1
3. c1ccc2c(-c3cnn4cc(-c5ccc(N6CCNCC6)cc5)cnc34)ccnc2c1

1: 104; 2: 100; 3: 69

====

target: UniProt:Q9Y4K4; assay: radiometric filter-binding kinase assay; settings: compound 1.0 µM
Sequence (Q9Y4K4 whole entry, looked up): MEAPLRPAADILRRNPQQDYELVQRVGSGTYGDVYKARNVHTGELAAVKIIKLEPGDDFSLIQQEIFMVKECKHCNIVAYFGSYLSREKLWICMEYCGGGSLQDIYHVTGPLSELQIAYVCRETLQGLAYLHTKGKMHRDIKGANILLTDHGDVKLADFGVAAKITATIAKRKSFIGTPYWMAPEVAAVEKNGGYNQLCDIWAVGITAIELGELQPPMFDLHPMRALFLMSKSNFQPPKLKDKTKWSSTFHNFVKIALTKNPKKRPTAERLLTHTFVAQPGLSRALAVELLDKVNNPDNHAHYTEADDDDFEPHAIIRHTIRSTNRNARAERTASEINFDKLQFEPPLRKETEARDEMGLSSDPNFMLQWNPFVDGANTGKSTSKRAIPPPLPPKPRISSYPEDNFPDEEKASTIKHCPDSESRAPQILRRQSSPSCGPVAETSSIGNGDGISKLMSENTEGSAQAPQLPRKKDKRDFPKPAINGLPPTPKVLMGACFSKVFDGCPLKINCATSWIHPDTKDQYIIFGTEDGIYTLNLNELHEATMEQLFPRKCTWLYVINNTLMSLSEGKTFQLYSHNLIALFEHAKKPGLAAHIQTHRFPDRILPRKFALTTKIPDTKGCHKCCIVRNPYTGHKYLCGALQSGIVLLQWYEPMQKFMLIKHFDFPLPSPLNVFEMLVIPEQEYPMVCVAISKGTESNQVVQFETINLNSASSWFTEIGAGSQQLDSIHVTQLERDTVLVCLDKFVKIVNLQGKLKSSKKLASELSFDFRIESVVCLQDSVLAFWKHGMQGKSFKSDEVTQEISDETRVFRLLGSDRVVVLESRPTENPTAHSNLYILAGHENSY
Hi there, I'd appreciate the recorded residual activity for every entry that follows.
Numbers only, in %.

Study these solved cases before continuing.
Which residual activity is listed for Nc1cccc2c1CN(C1CCC(=O)NC1=O)C2=O (stereo not given) ?
109

Which residual activity is listed for `NCC(=O)Nc1ccc(-n2nc(C(F)(F)F)cc2-c2ccc3c(ccc4ccccc43)c2)cc1` ?
80

Hi, could you look up residual activity for each item in my list?
1. CNC(=O)C1[C@H]2O[C@@](C)([C@@H]1N)n1c3ccccc3c3c4c(c5c6ccccc6n2c5c31)C(=O)NC4 (stereo not given in full)
2. CCNc1nc(Nc2cc(F)c(C(=O)N3CCOCC3)cc2OC)ncc1C(F)(F)F
3. Cc1ccc(-c2ccc3c(ccc4sc5c(c43)NC[C@@H](C)NC5=O)n2)cn1

1. 4
2. 109
3. 108

====

Hi there, I'd appreciate the recorded residual activity for every entry that follows.
target: EPHB1 (human); assay: radiometric filter-binding kinase assay; details: compound 1.0 µM
One number for each entry, in %.

Study these solved cases before continuing.
Recall the recorded residual activity for O=C(NOCC(O)CO)c1ccc(F)c(F)c1Nc1ccc(I)cc1Cl (stereo not drawn) with EPHB1 (human) and state it.
107

Recall the recorded residual activity for `O=C(N[C@@H](COc1ccc2[nH]c(=O)[nH]c2c1)c1ccccc1)c1cccn(Cc2ccc(F)c(F)c2)c1=O` with EPHB1 (human) and state it.
88

Recall the recorded residual activity for `COc1ccc(N(C(=O)Nc2c(C)cccc2C)c2cc(Nc3ccc(N4CCN(C)CC4)cc3)ncn2)c(OC)c1` with EPHB1 (human) and state it.
2

Hi, could you look up residual activity for each item in my list?
1. Nc1cccc2c1CN(C1CCC(=O)NC1=O)C2=O (stereo not drawn)
2. COc1cc(C(=O)N2CCOCC2)c(F)cc1Nc1ncc(C(F)(F)F)c(NC2CC2)n1
3. CCNc1nc(Nc2cc(F)c(C(=O)N3CCOCC3)cc2OC)ncc1C(F)(F)F
4. CCCCCc1ccc(/C=C/[C@H](O)[C@@H](CO)NC)cc1

1: 115; 2: 93; 3: 100; 4: 108

Hi, could you look up residual activity for each item in my list?
1. FC(F)(F)c1ccc(-c2ccc(Oc3cncc4sc(-c5nn[nH]n5)cc34)cc2)cc1
2. Cc1ccc(Sc2cnc(Nc3cccc(Br)n3)s2)cc1C(=O)N1CCN(C(=O)CN)CC1
3. O=C(NOC[C@H](O)CO)c1ccc(F)c(F)c1Nc1ccc(I)cc1Cl
4. CCn1c(-c2nonc2N)nc2cncc(CNC3CCNCC3)c21
5. C=CC(=O)N1CCC[C@@H](n2nc(-c3ccc(Oc4ccccc4)cc3)c3c(N)ncnc32)C1
6. O=C(Nc1ccccc1-c1cn2c(CN3CCNCC3)csc2n1)c1cnc2ccccc2n1
7. O=C(NCCCNc1nc(Nc2cccc(CN3CCOCC3)c2)ncc1C1CC1)C1CCC1

[108, 36, 95, 99, 90, 102, 108]

Hi, could you look up residual activity for each item in my list?
1. C=C1C(=O)OC2C1CC/C(C)=C/CCC1(C)OC21 (stereo not drawn)
2. O=c1c(O)c(-c2ccc(O)c(O)c2)oc2cc(O)c(O)c(O)c12
3. Cc1ccc(-c2ccc3c(ccc4sc5c(c43)NC[C@@H](C)NC5=O)n2)cn1
4. COc1cc(O)c2c(c1)[C@H]1OC1C[C@H](O)[C@H](O)C(=O)/C=C\C[C@H](C)OC2=O (stereo partly drawn)

103
85
106
84

====

Hi there, I'd appreciate the recorded residual activity for every entry that follows.
biological target: HIPK1 (human) (UniProt Q86Z02); experiment: radiometric filter-binding kinase assay; conditions: compound 1.0 µM
Sequence (Q86Z02 whole entry, looked up): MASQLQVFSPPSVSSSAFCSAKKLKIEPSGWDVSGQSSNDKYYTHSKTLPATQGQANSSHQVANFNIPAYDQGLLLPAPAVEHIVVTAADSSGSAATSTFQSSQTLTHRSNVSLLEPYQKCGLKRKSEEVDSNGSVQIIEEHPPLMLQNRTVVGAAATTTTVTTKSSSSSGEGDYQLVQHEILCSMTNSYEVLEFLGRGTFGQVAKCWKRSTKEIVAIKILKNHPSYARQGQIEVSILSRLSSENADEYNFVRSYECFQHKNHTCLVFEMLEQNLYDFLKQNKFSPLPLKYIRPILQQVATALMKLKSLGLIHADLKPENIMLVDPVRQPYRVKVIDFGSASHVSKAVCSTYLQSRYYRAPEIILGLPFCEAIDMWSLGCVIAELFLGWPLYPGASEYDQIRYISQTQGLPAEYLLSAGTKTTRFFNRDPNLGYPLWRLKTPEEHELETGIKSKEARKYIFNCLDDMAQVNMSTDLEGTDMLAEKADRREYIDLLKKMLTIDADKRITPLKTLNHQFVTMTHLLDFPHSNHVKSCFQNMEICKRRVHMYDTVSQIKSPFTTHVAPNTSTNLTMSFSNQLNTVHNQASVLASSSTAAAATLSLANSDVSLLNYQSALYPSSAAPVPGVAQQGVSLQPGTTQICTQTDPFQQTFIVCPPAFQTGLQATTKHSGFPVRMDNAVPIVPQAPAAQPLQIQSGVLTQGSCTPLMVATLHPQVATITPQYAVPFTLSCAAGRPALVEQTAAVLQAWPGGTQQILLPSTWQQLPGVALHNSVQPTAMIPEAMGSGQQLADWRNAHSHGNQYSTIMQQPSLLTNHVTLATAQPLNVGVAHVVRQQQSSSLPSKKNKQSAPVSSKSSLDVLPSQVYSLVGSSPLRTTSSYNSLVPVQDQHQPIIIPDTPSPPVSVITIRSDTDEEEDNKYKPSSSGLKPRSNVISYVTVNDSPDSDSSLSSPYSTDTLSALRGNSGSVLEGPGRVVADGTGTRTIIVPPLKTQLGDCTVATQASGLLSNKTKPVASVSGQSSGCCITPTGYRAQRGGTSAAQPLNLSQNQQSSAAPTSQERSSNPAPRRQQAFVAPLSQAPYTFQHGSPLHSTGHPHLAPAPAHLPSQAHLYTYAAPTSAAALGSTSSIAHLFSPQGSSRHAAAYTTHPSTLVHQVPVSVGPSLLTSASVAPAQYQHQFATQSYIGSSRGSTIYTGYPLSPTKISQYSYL
Numbers only, in %.

Study these solved cases before continuing.
Which residual activity is listed for `CC(C)(C#N)c1ccc(N2C(=O)OCc3cnc4ccc(-c5cnc6ccccc6c5)cc4c32)cc1` ?
94

Which residual activity is listed for `COc1cc(O)c2c(c1)/C=C/C[C@H](O)[C@H](O)C(=O)/C=C\C[C@H](C)OC2=O` ?
98

Hi, could you look up residual activity for each item in my list?
1. Cc1nc(-c2ccc(OCC(C)C)c(C#N)c2)sc1C(=O)O
2. COc1cc(C(=O)N2CCOCC2)c(F)cc1Nc1ncc(C(F)(F)F)c(NC2CC2)n1

90
92

Hi, could you look up residual activity for each item in my list?
1. COc1ccc(N(C(=O)Nc2c(C)cccc2C)c2cc(Nc3ccc(N4CCN(C)CC4)cc3)ncn2)c(OC)c1
2. NC(=O)c1cc(-c2ccnc(NC3CCCCC3)c2)nc(N2CCNCC2)c1
3. Cc1ccc(=O)n(-c2ccccc2)c1
4. NC(=O)c1c(NC(=O)C2CC2)sc2c1CCCC2
5. NC(=O)c1ccc(-c2ccc(Oc3cncc4sc(-c5nn[nH]n5)cc34)cc2)cc1
6. CCn1c(-c2nonc2N)nc2cncc(CNC3CCNCC3)c21

1. 56
2. 99
3. 118
4. 100
5. 104
6. 107

====

system: LCK (mouse); assay: radiometric filter-binding kinase assay; conditions: compound 0.1 µM; accession and sequence are those of the human protein
experimental.readout: residual activity (%)
Give bare numbers, in %.

Study these solved cases before continuing.
Which residual activity is listed for `COc1ccc(-n2ncc3cnc(Nc4cc(OC)c(OC)c(OCCCN5CCN(C)CC5)c4)nc32)cc1` ?
10

Which residual activity is listed for `O=C(NCCCNc1nc(Nc2cccc(CN3CCOCC3)c2)ncc1C1CC1)C1CCC1` ?
80

Which residual activity is listed for `Cc1cc(NC(=O)c2cccc(NC(=O)/C=C/CN(C)C)c2)ccc1Nc1nccc(-c2cccnc2)n1` ?
96

Which residual activity is listed for `Cc1cccc(-c2nn(C(=S)Nc3ccccc3)cc2-c2ccnc3ccccc23)n1` ?
105

Which residual activity is listed for COc1ccc2c(c1)c1c3c(c4c5ccccc5n(C)c4c1n2CC(O)CN(C)C)C(=O)NC3=O (configuration not stated) ?
103

Hi, could you look up residual activity for each item in my list?
1. Cc1ccc(Sc2cnc(Nc3cccc(Br)n3)s2)cc1C(=O)N1CCN(C(=O)CN)CC1
2. NC1(c2ccc(-c3nc4ccn5c(=O)[nH]nc5c4cc3-c3ccccc3)cc2)CCC1
3. CCn1c(-c2nonc2N)nc2cncc(CNC3CCNCC3)c21

1: 43; 2: 106; 3: 102

Hi, could you look up residual activity for each item in my list?
1. O=C(O)c1ccc(-c2c[nH]c3ncc(-c4ccccc4)cc23)cc1C1CCCC1
2. NC(=O)c1cc(-c2ccnc(NC3CCCCC3)c2)nc(N2CCNCC2)c1

1. 109
2. 84

Hi, could you look up residual activity for each item in my list?
1. O=C(Nc1ccccc1-c1cn2c(CN3CCNCC3)csc2n1)c1cnc2ccccc2n1
2. NC(=O)c1cc2c(-c3cccc(-c4ccccc4)c3)cnc(N)c2s1
3. O=C(N[C@@H](COc1ccc2[nH]c(=O)[nH]c2c1)c1ccccc1)c1cccn(Cc2ccc(F)c(F)c2)c1=O
4. CCc1cncnc1N1CCN(Cc2nc3cc(C(F)(F)F)ccc3[nH]2)CC1
5. COc1cc(O)c2c(c1)/C=C/C[C@H](O)[C@H](O)C(=O)/C=C\C[C@H](C)OC2=O

1. 88
2. 105
3. 109
4. 91
5. 78

Hi, could you look up residual activity for each item in my list?
1. COc1ccc(N(C(=O)Nc2c(C)cccc2C)c2cc(Nc3ccc(N4CCN(C)CC4)cc3)ncn2)c(OC)c1
2. C/C(=C1/C(=O)Nc2ccc(NC(N)=O)cc21)c1ccc[nH]1
3. Cn1c(=O)c2c(ncn2C)n(C)c1=O

1: 54; 2: 64; 3: 88

Hi, could you look up residual activity for each item in my list?
1. CN(C)C/C=C/C(=O)Nc1cccc(C(=O)Nc2ccc(Nc3nccc(-c4cccnc4)n3)cc2)c1
2. c1ccc2c(-c3cnn4cc(-c5ccc(N6CCNCC6)cc5)cnc34)ccnc2c1
3. CNC(=O)C1[C@H]2O[C@@](C)([C@@H]1N)n1c3ccccc3c3c4c(c5c6ccccc6n2c5c31)C(=O)NC4 (some centres not stated)
4. O=C(Nc1nc2cc(C(F)(F)F)cc(NC3CC3)n2n1)c1cccnc1
5. NC(=O)Nc1ccc2c(c1)/C(=C/c1cc(-c3cccnc3)c[nH]1)C(=O)N2
6. CNc1nc(-c2ccc3c(N)n[nH]c3c2)cc(N2C[C@@H](C(=O)NC3CCCCC3)CC[C@H]2C)n1
7. COc1cc(O)c2c(c1)[C@H]1OC1C[C@H](O)[C@H](O)C(=O)/C=C\C[C@H](C)OC2=O (some centres not stated)
8. C=CC(=O)N1CCC[C@@H](n2nc(-c3ccc(Oc4ccccc4)cc3)c3c(N)ncnc32)C1

1: 95; 2: 81; 3: 13; 4: 97; 5: 44; 6: 107; 7: 93; 8: 22

Which residual activity is listed for `CCCCCc1ccc(/C=C/[C@H](O)[C@@H](CO)NC)cc1` ?
106
